experiment.description: blockers of DNA damage checkpoint Chk1 activation – imaging, HeLa, hydroxyurea, phospho-Chk1 antibody, percent positive cells, primary screen (AID 1186)
assay.conditions: hydroxyurea-induced phospho-Chk1 immunofluorescence imaging, higher = more signal
Each entry below carries its reported z-score.
Answer using only a numeral; do not append any unit.

Give its z-score value. Item: Cc1ccc(S[C@]2(C(=O)NCC(C)C)CC(=O)N(Cc3cc(C(F)(F)F)cc(C(F)(F)F)c3)[C@@H]2c2ccc(CO)cc2)cc1 -0.0406

Give its z-score value. Item: COc1ccc(C(O)C2C=CC3C(=O)N(C)C(=O)C3N2NC(=O)OC(C)(C)C)c2ccccc12 (centres undefined) 0.667

Give its z-score value. Item: C=C(C)[C@@H]1CC=C(C(O)C2C=CC3C(=O)NC(=O)C3N2Nc2ccc(Cl)cc2Cl)CC1 (some centres undefined) 0.463

Give its z-score value. Item: COc1ccc([C@H]2OC[C@@H]3CCC(=O)N32)cc1 -0.208

----------
Each entry below carries its reported composite z-score.
Tested on: XIP peptide (Xip251-270) binding
experiment.description: XIP fragment 251-270 binding compounds – biochemical, small-molecule microarray, fluorescence 635/667 nm, 0.1 µg/mL protein, primary screen (AID 1182)
assay.conditions: fluorescent protein binding, 635 nm, higher = more signal, called active from +8 up or from −8 down
Answer using only a numeral; do not append any unit.

Worked cases, composite z-score given:
{"compound": "CCCC(=O)N(CCc1c[nH]c2ccccc12)[C@@H]1CC(C(=O)NCCO)=C[C@H](Oc2c(I)cc(CO)cc2OC)[C@H]1O", "readout.type": "composite z-score", "reported": -0.131}
{"compound": "[N-]=[N+]=Nc1ccccc1C[C@]1(C(=O)NCC(O)CO)N=C(c2ccc(OCCCO)cc2)O[C@H]1c1ccccc1 (some centres undefined)", "readout.type": "composite z-score", "reported": 0.474}
{"compound": "CCCNC(=O)[C@@H]1c2ccccc2C(=O)N(Cc2ccccc2OC)[C@H]1c1ccc(CO)cc1", "readout.type": "composite z-score", "reported": 0.273}

Give its composite z-score value. Item: CCCCC(=C=CC[C@@H](O)c1ccc(CO)o1)CCO 0.54

----------
Tested on: Wnt5a (protein binding on small-molecule microarray)
experiment.description: small molecules binding Wnt5a protein – biophysical, small-molecule microarray, 635/667 nm fluorescence, primary screen (AID 1142);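 note: fluorescence read at 667 nm with signal to noise per printed feature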
assay.conditions: 635 nm fluorescence, higher = more signal
Each record gets a class by composite z-score: bottom range = under -0.1, center range = from -0.1 up to 0.3, top range = 0.3 and over

These recorded examples may help you get a feel for the data.
{"molecule": "O=C1OCCC=C[C@H]2OC34C=CCN(c5ccc(Cl)cc5)C(=O)[C@H]3N(CCCO)C(=O)[C@@H]4C12 (stereo partly specified)", "discrete.label": "center range"}
{"molecule": "CO[C@H]1O[C@H](CO)[C@@H](OC(=O)Nc2ccccc2)[C@@H]2OC(=O)[C@@H](Cc3ccc4ccccc4c3)C/C=C/C[C@H](Cc3ccc4ccccc4c3)C(=O)O[C@@H]12", "discrete.label": "top range"}
{"molecule": "CC1CC/C=C\\[C@H]2OC34C=CCN(Cc5ccccc5)C(=O)[C@H]3N(C(C)CO)C(=O)[C@@H]4C2C(=O)O1 (stereo partly specified)", "discrete.label": "bottom range"}

Please classify: CC(=CC1CCCCC1)[C@@H](NC(=O)c1cccnc1)c1ccc(-c2ccccc2)cc1 bottom range

Please classify: CC(C)CN1C(=O)[C@@]2(c3ccc([N+](=O)[O-])cc3)CC(=O)N(C3CCCCC3)[C@@H]2c2ccc(CO)cc21 bottom range

Please classify: CC(C)[Si](C#CCCCC#N)(Oc1ccccc1Br)C(C)C center range

Please classify: COC(=O)[C@@]1(Cc2ccc(OC)cc2)[C@H]2c3cc(C(=O)N4CCCC4)n(CCCNc4ncc(C(F)(F)F)cc4Cl)c3C[C@H]2CN1C(=O)c1ccccc1 top range

Please classify: CC(=O)NCCCC[C@@H]1NC(=O)[C@H]2C[C@@H](C(=O)NCCCCCNC(=O)CS)[C@@H](c3ccc(O)cc3)N2C1=O center range

Please classify: CN1C(=O)C2C=CC(C(O)c3ccccc3)N(N3CCCCC3)C2C1=O (stereo unspecified) top range

----------
tested.target: Follistatin (Homo sapiens)
experiment.description: FST protein binding to printed compounds – biochemical, small-molecule microarray, 635/667 nm fluorescence, primary screen (AID 1132)
assay.conditions: 635 nm fluorescence, higher = more signal
readout.type: composite z-score
Answer using only a numeral; do not append any unit.

Worked cases, composite z-score given:
{"molecule": "CCN(CC)c1ccc(N2CC=CC34O[C@@H]5C=CCOC(=O)[C@@H]5[C@H]3C(=O)N(CCCCCCO)[C@@H]4C2=O)cc1 (some centres not stated)", "readout.type": "composite z-score", "reported": -0.0283}
{"molecule": "COc1cc(CO)cc(I)c1O[C@H]1C=C(C(=O)NCCO)C[C@@H](N(C(=O)c2cc3ccccc3oc2=O)C2CCCCCC2)[C@@H]1O", "readout.type": "composite z-score", "reported": 0.625}
{"molecule": "CC(C)(C)OC(=O)CC[C@]1(C(=O)NCCN2CCOCC2)COC(c2ccc(OCCCO)cc2)=N1", "readout.type": "composite z-score", "reported": 1.32}
{"molecule": "CC(C)CN1C(=O)[C@@]2(c3ccc([N+](=O)[O-])cc3)CC(=O)N(C3CCCCC3)[C@@H]2c2ccc(CO)cc21", "readout.type": "composite z-score", "reported": -1.29}
{"molecule": "O=C1C2C=CC(C(O)C=Cc3ccc([N+](=O)[O-])cc3)N(n3cnnc3)C2C(=O)N1Cc1ccccc1 (configuration not stated)", "readout.type": "composite z-score", "reported": 1.16}

Fill in the recorded composite z-score for this molecule, with Follistatin (Homo sapiens) as test system: COC(=O)[C@@]1(Cc2ccc(OC)cc2)[C@H]2c3cc(C(=O)N(C)C)n(Cc4ccc(C(F)(F)F)nc4)c3C[C@H]2CN1C(=O)c1ccccc1 -0.0313

Fill in the recorded composite z-score for this molecule, with Follistatin (Homo sapiens) as test system: O=C1O[C@@H](c2ccccc2)[C@@H](c2ccccc2)N2[C@@H](c3ccccc3OCCO)[C@]3(C(=O)Nc4ccc(C#CC5(O)CCCCCC5)cc43)[C@@H](C(=O)N3CCN(c4ncccn4)CC3)[C@H]12 1.03

----------
experiment.description: blood-stage malaria parasite viability loss – strain 3D7, DAPI fluorescence, 100 nL, primary screen (AID 1184);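 note: parasites grown inside human red blood cells in medium with human serum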
assay.conditions: P. falciparum 3D7 growth, 3 d, higher = more signal
Everything with z-score lower than -0.5 is criterion not met; everything else, including exactly -0.5, is criterion met.

These recorded examples may help you get a feel for the data.
{"compound": "CC=CC(O)C1C=CC2C(=O)N(C)C(=O)C2N1N(c1ccccc1)c1ccccc1 (configuration not stated)", "discrete.label": "criterion met"}
{"compound": "CCCCCCc1nc(-c2ccc(-c3ccc(Cl)c(Cl)c3)o2)cc2c1[Si](C(C)C)(C(C)C)O[C@H]2c1ccccc1", "discrete.label": "criterion not met"}
{"compound": "CC(C)(C)OC(=O)CC[C@@]1(C(=O)N2CCCCC2)N=C(c2ccc(OCCCO)cc2)O[C@@H]1c1ccccc1", "discrete.label": "criterion not met"}
{"compound": "C[N+](C)(C)CCCC[C@@H]1NC(=O)[C@@H]2C[C@H](C(=O)NCCCCCCNC(=O)CS)[C@H](c3ccc(O)cc3)N2C1=O", "discrete.label": "criterion met"}

Please check the record O=C1C[C@@](C(=O)NCc2ccccc2)(c2ccc([N+](=O)[O-])cc2)[C@@H](c2ccc(CO)cc2)N1CC12CC3CC(CC(C3)C1)C2 and state if its z-score is at or above -0.5. criterion not met

Please check the record CCOC(=O)C[C@H]1[C@H](OC(=O)c2cc3ccccc3oc2=O)[C@@H](NC(=O)CC(C)C)c2cc(OCCCO)ccc2N1C(=O)c1ccccc1 and state if its z-score is at or above -0.5. criterion not met

----------
tested.target: NADPH oxidase 5 (Homo sapiens)
experiment.description: compounds shifting NOX5 Amplex Red fluorescence – cell-based, HEK293-NOX5, NOX inhibitor project, primary screen (AID 1161)
assay.conditions: HEK293-NOX5, ionomycin, 45 min, higher = more signal
readout.type: z-score
Answer using only a numeral; do not append any unit.

{"compound": "CN(C)CCCCCCNC(=O)[C@@H]1C[C@@H]2C(=O)N3CCC[C@H]3C(=O)N2[C@@H]1c1ccc(O)cc1", "tested.target": "NADPH oxidase 5 (Homo sapiens)", "z-score": 0.884}

We now examine a further compound.
Give its z-score value. Item: CC(C)C(=C=CC[C@H](O)c1ccc(CO)o1)CCO -0.21

----------
experiment.description: plasmodial surface anion channel blockers, osmotic lysis – cell-based, P. falciparum Indochina, OD700, 18 h, primary screen (AID 1157)
assay.conditions: P. falciparum Indochina infected erythrocytes, osmotic lysis OD700, 18 h; higher = more signal, called active from +8 up or from −8 down
Each entry below carries its reported z-score.
Answer using only a numeral; do not append any unit.

Worked cases, z-score given:
{"compound": "COCCCNC(=O)[C@@]1(CCS(=O)(=O)c2ccccc2)N=C(c2ccc(OCCCO)cc2)O[C@H]1c1ccccc1N=[N+]=[N-]", "reported": 0.425}
{"compound": "C=CC[C@]12N=C(c3ccc(OCCCO)cc3)O[C@H]1c1ccccc1N(CCS(=O)(=O)c1ccccc1)C2=O", "reported": 7.99}
{"compound": "CCOC(=O)C1=CC[C@@H](c2ccccc2)N(S(=O)(=O)c2ccc(C)cc2)[C@H]1c1ccc(CC)cc1", "reported": 0.361}
{"compound": "COc1ccc(C#Cc2ccc3c(c2)[C@]2(C(=O)N3)[C@H](c3ccc(O)cc3)N3[C@H](c4ccccc4)[C@H](c4ccccc4)OC(=O)[C@H]3[C@@H]2C(=O)N2CCc3cc(OC)c(OC)cc3C2)cc1", "reported": 0.196}
{"compound": "COc1ccc(C(O)C2C=CC3C(=O)N(C)C(=O)C3N2N(c2ccccc2)c2ccccc2)c2ccccc12 (configuration not stated)", "reported": 1.32}
{"compound": "C=CCOC(=O)[C@H]1[C@@H]2C(=O)O[C@@H](c3ccccc3)[C@@H](c3ccccc3)N2[C@@H](c2ccc(OCCOC(=O)[C@@H]3C[C@@H]4C(=O)N5CCC[C@H]5C(=O)N4[C@@H]3c3cccc(OCCO)c3)cc2)[C@]12C(=O)Nc1ccc(I)cc12", "reported": 1.5}

Give its z-score value. Item: CCN(CC)c1ccc(N2CC=CC34O[C@@H]5/C=C\CCC(C)OC(=O)C5[C@H]3C(=O)N(CCCCCO)[C@@H]4C2=O)cc1 (some centres not stated) -0.427

Hello, the source for this data is PubChem BioAssay, in case you need it.
